Target: human TrkA (Homo sapiens (Human), UniProt P04629)
Sequence (P04629 440-796): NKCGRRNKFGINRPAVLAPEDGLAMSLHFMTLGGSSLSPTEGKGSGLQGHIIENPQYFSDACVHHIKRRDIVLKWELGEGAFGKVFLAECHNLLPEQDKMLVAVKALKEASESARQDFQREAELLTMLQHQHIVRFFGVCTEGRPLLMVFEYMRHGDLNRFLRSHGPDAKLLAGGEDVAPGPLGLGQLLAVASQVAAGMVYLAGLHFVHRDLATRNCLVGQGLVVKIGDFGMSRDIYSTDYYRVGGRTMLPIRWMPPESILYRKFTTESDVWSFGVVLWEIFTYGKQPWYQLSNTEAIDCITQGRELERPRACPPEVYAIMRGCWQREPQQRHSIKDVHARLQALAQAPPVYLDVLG
Assay: Human TrkA inhibition assay (Test Example 2)
Assay type: biochemical
Conditions: Table 157, human TrkA inhibition; read-out: IC50
pIC50: −log10 of the molar value.
MEASUREMENT_NAME: pIC50

CCCN1C[C@@H](NC(=O)Nc2c(C)c(OCC3CCN(C)CC3)nn2-c2ccccc2)[C@H](c2ccc(F)c(F)c2)O1 (racemic) [Compound I-654] = > 7.00
CCN1C[C@@H](NC(=O)Nc2c(C)c(OCC3CCN(C(=O)CO)CC3)nn2-c2ccccc2)[C@H](c2ccc(F)c(F)c2)O1 (racemic) [Compound I-607] = > 7.00
CCN1C[C@@H](NC(=O)Nc2c(C)c(OCCC3CCNCC3)nn2-c2ccccc2)[C@H](c2ccc(F)c(F)c2)O1 (racemic) [Compound I-671] = > 7.00
COCCN1C[C@@H](NC(=O)Nc2c(C)c(OCC(=O)NC3CC3)nn2-c2ccccc2)[C@H](c2ccnc(F)c2)O1 (racemic) [Compound I-635] = > 7.00
CCN1C[C@@H](NC(=O)Nc2c(C)c(-c3ccc4nc(C(N)=O)cn4c3)nn2-c2ccccc2)[C@H](c2ccc(F)c(F)c2)O1 (racemic) [Compound I-611] = > 7.00

Continue with the next molecule.
Please list pIC50 recorded for the molecule CCN1C[C@@H](NC(=O)Nc2c(C)c(OC3CN(C)C3)nn2-c2ccccc2)[C@H](c2ccc(F)c(F)c2)O1 (racemic) [Compound I-632]
6.00 to 7.00

----------
Molecular target: human TrkA (Homo sapiens (Human))
Assay: Human TrkA inhibition assay (Test Example 2)
Assay type: biochemical
Conditions: human TrkA 1 nmol/L, ATP 500 μmol/L, 120 min at 37° C.; read-out: IC50 values (TrkA phosphorylation inhibition)
pIC50: −log10 of the molar value.
MEASUREMENT_NAME: pIC50

Observe how each entry below is paired with its result.
COCC[C@@H]1C[C@@H](NC(=O)Nc2c(C)c(-c3cnc(C)nc3)nn2-c2ccccc2)[C@H](c2ccnc(F)c2)O1 [Compound I-237] = 8.09
COCCN1C[C@@H](NC(=O)Nc2c(C)c(-c3cnc(OC)nc3)nn2-c2ccccc2)[C@H](c2ccnc(F)c2)O1 (racemic) [Compound I-119] = 8.40
CCN1C[C@@H](NC(=O)Nc2c(C)c(OCC3CCN(C)CC3)nn2-c2ccccc2)[C@H](c2ccc(F)c(F)c2)O1 = 8.40
COCCN1C[C@@H](NC(=O)Nc2c(C)c(-c3cnc(OC)nc3)nn2-c2ccccc2)[C@H](c2cnc(F)c(F)c2)O1 (racemic) [Compound I-57] = 8.66

[I] COCCN1C[C@@H](NC(=O)Nc2c(C)c(-c3cnc4c(cnn4C4CCN(C)CC4)c3)nn2-c2ccccc2)[C@H](c2ccnc(F)c2)O1 (racemic)
[II] COCCN1C[C@@H](NC(=O)Nc2c(C)c(-c3cnc(C(N)=O)c(C)c3)nn2-c2ccccc2)[C@H](c2ccnc(F)c2)O1 (racemic)
Which entry has a larger number for pIC50, I or II ? Please identify the chosen entry by its label.
I
(I: 8.60, II: 8.28)

----------
Assay: Clearance test, intravenous administration in SD rats (Test Example 7)
Type: in vivo
Settings: rat, plasma, intravenous administration 0.5 mg/kg or 1 μmol/kg, read-out: Total Clearance (CLtot)
MEASUREMENT_NAME: clearance (mL/min/kg)

CCN1CCC(NC(=O)c2ccc(-c3nn(-c4ccccc4)c(NC(=O)N[C@@H]4CC(CCOC)O[C@H]4c4ccccc4)c3C)cc2)CC1 (stereo partly drawn) [Compound I-19] = 15.6

[A] COCCC1C[C@@H](NC(=O)Nc2c(C)c(-c3cnc(C)nc3)nn2-c2ccccc2)[C@H](c2ccccc2)O1 (stereo partly drawn) [Compound I-12]
[B] COCC[C@@H]1C[C@@H](NC(=O)Nc2c(C)c(-c3cnc4c(c3)nnn4C)nn2-c2ccccc2)[C@H](c2ccnc(F)c2)O1 [Compound I-275]
Pick one: A or B . Which one has the lower reported clearance? Please identify the chosen entry by its label.
B
(B: 3.73 mL/min/kg, A: 13.6 mL/min/kg)

Measured values drawn from patent US10640495B2 for this set.
